Tested on: EKVX NSCLC
method: NCI tumour cell line growth inhibition, 48 h
Each item that follows carries a reported GI50.

Here are 6 compounds together with their reported answers.
1) NC(N)=N/N=C/c1c(-c2ccc(Cl)c([N+](=O)[O-])c2)nc2n1CCS2 = 12.7 µM
2) Cn1cc(CO)c2ccccc21 = 50.7 µM
3) Cc1ccc(-n2c3c(c4c(CN5CCOCC5)c(O)ccc42)CCc2ccccc2C3=O)cc1 = > 100 µM
4) Oc1[nH]c2ccccc2c1/C=c1/cc2c(c(-c3ccc(C(F)(F)F)cc3)n1)=Nc1ccccc1-2 = 10.5 µM
5) Fc1cc(-c2nnc3n2N=C(c2ccc(Cl)cc2Cl)CS3)c(Cl)cc1Cl = 58.5 µM
6) Nc1ccn([C@@H]2C(F)=C(CO)[C@@H](O)[C@H]2O)c(=O)n1 = 26.8 µM

What value of GI50 has been recorded for this entry: C/C(=N\n1c(N)c(C#N)c(-c2ccc(Cl)cc2)c(C#N)c1=O)c1ccncc1
6.13 µM

Given CN(C)CCCC1(c2ccc(F)cc2)OCc2cc(-c3cncc4ccccc34)ccc21 (centres undefined) , state its recorded GI50.
8.48 µM

// returns reported GI50 for input O=C(Cc1ccc(/C=C/C(=O)c2ncc[nH]2)cc1)Nc1ccc(C(F)(F)F)cc1
5.57 µM

---

Quick reference: TGI of the listed items.
System: HCT-15 colon
method: NCI tumour cell line growth inhibition, 48 h

1. CC12CC(c3ccccc3O1)C(C(=O)Nc1cccc(F)c1)C(=O)N2 (stereo not drawn) = > 100 µM
2. O=C(CCN1CCCC1)Nc1ccc2c(Nc3ccccc3)c3ccccc3nc2c1 = 2.36 µM
3. CC1(C)CCC2(C(=O)OC3OC(CO)C(O)C(O)C3O)CCC3(CO)C(=CCC4C5(C)CC(O)C(O)C(C)(C(=O)OC6OC(CO)C(O)C(O)C6O)C5CCC43C)C2C1 (stereo not drawn) = > 100 µM
4. CNc1ccc(S(=O)Nc2ccccc2)cc1 (stereo not drawn) = > 100 µM
5. O=[N+]([O-])C1C2C=CC(C2)[C@H]1c1ccc(Cl)cc1Cl (stereo partly drawn) = > 100 µM
6. CNc1ccc(Cl)cc1S(=O)(=O)c1ccccc1[N+](=O)[O-] = > 100 µM
7. Fc1cc(-c2nnc3n2N=C(c2ccc(Cl)cc2Cl)CS3)c(Cl)cc1Cl = > 100 µM
8. COc1ccc(C2ONC3=NCCN32)cc1 (stereo not drawn) = > 100 µM
9. COc1ccc(C(=O)C[C@]2(O)C(=O)Nc3c(Cl)ccc(Cl)c32)cc1 = > 100 µM
10. Cn1cnc([N+](=O)[O-])c1Sc1nc(N)nc2nc[nH]c12 = > 100 µM

Would you mind telling me what TGI value was observed for NC(=O)c1cc(I)ccc1NC(=O)COc1ccccc1 ?
> 100 µM

Requested field: TGI. Item: COc1ccc(-c2nc(-c3cnccn3)n(C3OC(CO)C(O)C(O)C3O)n2)cc1 (stereo not drawn)
> 100 µM

Bench note: what TGI did O=C(Nc1ccccc1O)c1ccc(CNC(=O)c2ccsc2Nc2ccnc(C(F)(F)F)c2)cc1 show?
18.9 µM

I have this compound here, O=C1OI(C#Cc2ccccc2)c2ccccc21 , and I need its recorded TGI.
11.2 µM

Need TGI, item O=S1(=O)OCCOS(=O)(=O)C1Cc1nc2ccccc2[nH]1
> 100 µM

Entry under review: CN(C)C(=O)SC1=C(c2c(Cl)cccc2Cl)C(=O)c2ccccc21 . Reported TGI?
6.28 µM

Given COc1ccc2c(c1)nc1n2C(c2ccc(F)cc2)SC1 (stereo not drawn) , state its recorded TGI.
42.8 µM

Please give the measured TGI for this compound: CC(C)(C)c1c(C(C)(C)C)c(=O)c1=O
> 100 µM

What does the data say about its TGI? Entry: CCOC(=O)c1nc2ccccc2nc1NCc1ccc(Cl)cc1Cl
> 100 µM

Field request: TGI | item: Cn1c(=O)sc2cc(C(=S)N3CCOCC3)ccc21
> 100 µM

Using the record for COC(=O)CC(NC(=O)OCc1ccccc1)C(C(=O)OCc1ccccc1)C1(C)OCCO1 (stereo not drawn) , report its TGI.
> 100 µM

# TGI lookup, item CC(=O)OCCC(O[Si](c1ccccc1)(c1ccccc1)C(C)(C)C)C(C)(C)O (stereo not drawn)
> 100 µM

Fill in the blank: the reported TGI of CC(=O)O[C@H]1C(=O)N(c2cc3c4ccccc4ccc3c3ccccc23)[C@@H]1c1ccccc1 is ____.
> 100 µM

Name the recorded TGI for O=C(c1ccco1)C1CC(c2ccc3ccccc3c2O)=NN1c1ccc([N+](=O)[O-])cc1[N+](=O)[O-] (stereo not drawn) .
> 100 µM

---

Test system: SK-MEL-2 melanoma
method: NCI tumour cell line growth inhibition, 48 h
readout.name: TGI

Reference set, count: 3
1) Cn1cc(CO)c2ccccc21 = > 100 µM
2) Cc1n(Cc2ccc3ccccc3c2)c(Cl)c(Cl)[n+]1Cc1ccc2ccccc2c1 = 4.13 µM
3) CC1=C(C(=O)CC(=O)C(=O)NC2C3CC4CC(C3)CC2C4)Sc2ccccc2N1 (centres undefined) = > 100 µM

# returns recorded TGI (system: SK-MEL-2 melanoma) for COc1ccc(C(=O)c2ccc(-n3cc(/C=C/[N+](=O)[O-])c4ccccc43)cc2)cc1
58 µM

---

Catalogue of compounds with associated TGI
Tested on: NCI-H522 lung
method: NCI tumour cell line growth inhibition, 48 h
Give just the numeric value; µM need not be written.

1. C/C(=N/O)c1ccc2c(c1)C(=NO)c1cc(/C(C)=N/O)ccc1-2 = 53.3
2. CC[C@@]1(O)C(=O)OCc2c1cc1n(c2=O)Cc2cc3c(N)cccc3nc2-1 = 1.35

Query (compound): CC(c1ccccc1)N1CC(C)(c2ccccc2)N(O)C(c2ccccc2)C1C (stereo unspecified) ; field requested: TGI
32.3

Given the entry c1ccc(CC(NCCNC(Cc2ccccc2)c2ccccc2)c2ccccc2)cc1 (stereo unspecified) , report its measured TGI.
1.06

What measured TGI goes with C/C(=C\Cc1cc(O)ccc1O)CCc1c(C)cc(O)c(C=O)c1C ?
23.6

Entry O=C(Nc1ccc(Cl)cc1)Nc1ccccc1CNc1nc(Nc2ccc(OCCN3CCCC3)cc2)ncc1Cl : reported TGI = ?
2.94

Report TGI for CN(C)CCCC1(c2ccc(F)cc2)OCc2cc(-c3cncc4ccccc34)ccc21 (stereo unspecified) please.
4.08

Which TGI value belongs to NS(=O)(=O)c1cc(S(N)(=O)=O)c(NC(=O)N(c2ccccc2)c2ccccc2)c(Cl)c1Cl ?
27.1

For CC(=O)OCCC(O[Si](c1ccccc1)(c1ccccc1)C(C)(C)C)C(C)(C)O (stereo unspecified) , what is its reported TGI?
46.8

---

Test system: SK-MEL-2 melanoma
method: NCI tumour cell line growth inhibition, 48 h; in the data active = GI50 below about 0.43 µM; inactive = the rest
Output constraint: value belongs to T for active, F for inactive

For CCN(CC)CCOc1ccc(/C=C2\CC3C4CC=C5C[C@@H](OC(C)=O)CC[C@]5(C)C4CC[C@]3(C)C2=O)cc1OC (stereo partly specified) , which call appears in the assay record?
F

Which result was noted for this compound in the test: Cc1cc(=O)oc2cc(OCCn3c(C)nn(-c4ccc(Cl)cc4)c3=O)ccc12
F

// return assay outcome for Oc1[nH]c2ccccc2c1/C=c1/cc2c(c(-c3ccc(C(F)(F)F)cc3)n1)=Nc1ccccc1-2
F

# outcome recorded in this test, key = O=C(Nc1ccc(Cl)cc1)Nc1ccccc1CNc1nc(Nc2ccc(OCCN3CCCC3)cc2)ncc1Cl
F

Assay outcome for C=CC1=CC(C)C[C@]1(O)C(=O)OC (stereo partly specified) : what was it?
F

Recorded test outcome, item COc1ccc(-c2nc3c(c(=O)n2C(C)=O)C(c2ccc(Cl)cc2)c2sc4c(Cl)cccc4c2O3)cc1 (stereo unspecified)
T

---

Test system: CAKI-1 renal
method: NCI tumour cell line growth inhibition, 48 h
readout.name: GI50

Below, each entry is followed by its recorded GI50 result.
1. COc1ccc(/C=C(/C(=O)n2cnnn2)c2cc(OC)c(OC)c(OC)c2)cc1 = 4.15 µM
2. Cn1cc(CO)c2ccccc21 = 18.3 µM
3. COc1ccc2[nH]c(-c3ccccc3)cc2c1 = > 100 µM

Fill in the blank: the reported GI50 of CCCn1cnc2c(SCc3ccccc3)nc(N)nc21 is ____.
89.3 µM

Record request: GI50 value, item O=C(Nc1cc(S(=O)(=O)c2ccc(Cl)cc2)ccc1Cl)c1cc(I)cc(I)c1O
20.3 µM

# get_value(readout='GI50', item= COc1cc(-n2cc(-c3cc(O)c(C/C=C(\C)CCC=C(C)C)c(O)c3)nn2)cc2c1O[C@]1(C)CC[C@@H](O)C(C)(C)[C@H]1C2 )
0.43 µM

Field request: GI50 | item: Cc1ccc(-n2c3c(c4c(CN5CCOCC5)c(O)ccc42)CCc2ccccc2C3=O)cc1
94.1 µM

Would you mind telling me what GI50 value was observed for COc1ccc(C(=O)C[C@]2(O)C(=O)Nc3c(Cl)ccc(Cl)c32)cc1 ?
0.492 µM

Name the reported GI50 value associated with the compound CCc1cccc(CC)c1/C=C/c1cncc(C(=O)NC)c1
9.62 µM
